Target: native Semliki Forest virus (SFV) virion (Semliki Forest virus)
Assay: SPR
Exercise: for every item that follows, state its recorded pKd.
pKd here: minus log base 10 of the concentration, concentration in moles per litre.

Using known records, supply pKd for MRTCRIHEISCGAHSTACIPVSWRCDGENDCDSGEDEENCGNI (Fc fusion) [LA3-Fc Q126A]
4.93

Tell me measured pKd for MRTCAIHEISCGAHSTQCIPVSWRCDGENDCDSGEDEENCGNI (Fc fusion) [LA3-Fc R114A] please.
5.80

Read off the recorded pKd for MRTCRIHEISCGAHSTQCIPVSWRCDGENDCDSGEDEENCGNI (Fc fusion) [LA3-Fc]
5.93
